# Tested on: U2OS
# assayExplanation: Multiplex assay against U2OS
# Format: toxicity, cell-based
# runParameters: human, 48 h, 10 µM, compound concentration 10 uM, replicate 1
assayEndpoint: Total Cell Count
# output: bare number, no unit

CC(C)OC(=O)N1CCC(Oc2ncnc3c2cnn3-c2ccc(S(C)(=O)=O)cc2F)CC1
324
COc1cc2ncn(-c3cc(OCc4ccccc4C(F)(F)F)c(C(N)=O)s3)c2cc1OC [GW843682X]
187
CCc1ccc(OCc2ccccc2C(=O)Nc2ccc3nc(C)cc(N)c3c2)cc1.Cl
130
Cl.O=C(O)c1cc(-c2ccc(C3CCNCC3)cc2)c2ccc(-c3ccc(C(F)(F)F)cc3)cc2c1
332
CC1=C(C(=O)Nc2cc3cn[nH]c3cc2F)C(c2ccc(C(F)(F)F)cc2)CC(=O)N1 (centres undefined)
438
CC(C)Oc1ccccc1C(=O)Nc1ccccc1C(=O)Nc1cccc(S(=O)(=O)C(F)(F)F)c1
190
Cc1ccccc1C(c1ccccc1C)N1C2CCC1CC(O)(c1ccccc1)C2 (centres undefined)
289
O=c1cc(N2CCOCC2)oc2c(-c3cccc4c3sc3ccccc34)cccc12
305

Moving on to the next compound.
Q) Request - read-out Total Cell Count | tested on U2OS | compound COC(=O)C1=C(C)NC(C)=C(C(=O)OCCCN2CCC(c3ccccc3)(c3ccccc3)CC2)[C@H]1c1cccc([N+](=O)[O-])c1
A) 116
